Values were extracted from patent US9308179B2.

Test: Single dose pharmacokinetic study in Sprague-Dawley rats
Assay type: in vivo
Details: male, rat, plasma, 5 mg/kg single IV bolus
Recorded Metric: clearance (mL/min/kg)
Give just the number in mL/min/kg; leave the unit off.

*Q* Would you mind telling me what clearance value was observed for CC(=O)O[C@@]12CO[C@@H]1C[C@H](O)[C@@]1(C)C(=O)[C@H](O)C3=C(C)[C@@H](OC(=O)[C@H](O)[C@@H](NC(=O)OC(C)(C)C)c4ccccc4)C[C@@](O)([C@@H](OC(=O)c4ccccc4)[C@H]21)C3(C)C ?
*A* 38.8

###

Assay: Tumor docetaxel concentration after a single dose in human tumor xenograft model (LNCaP)
Assay type: in vivo, SCID mice
Conditions: male, SCID, mouse, 12 h after single IV dose of 50 mg/kg docetaxel
Method: Male severe combined immunodeficiency (SCID) mice were subcutaneously inoculated with human LNCaP prostate cancer cells. Three to four weeks after inoculation, the mice were assigned to different treatment groups such that the average tumor volume in each group was 300 mm^3. At this time, a single intravenous (IV) dose of 50 mg/kg docetaxel was administered as either docetaxel encapsulated in nanoparticles or conventional docetaxel. The test subjects were sacrificed 2 hour or 12 hour post-dose. […]
Recorded Metric: concentration at 12 h (ng/g)
Just the number in ng/g, nothing appended.

*Q* Requested read-out: concentration at 12 h. Entry: CC(=O)O[C@@]12CO[C@@H]1C[C@H](O)[C@@]1(C)C(=O)[C@H](O)C3=C(C)[C@@H](OC(=O)[C@H](O)[C@@H](NC(=O)OC(C)(C)C)c4ccccc4)C[C@@](O)([C@@H](OC(=O)c4ccccc4)[C@H]21)C3(C)C [Conventional Docetaxel, docetaxel]
*A* 3600

###

Experiment: Pharmacokinetics of docetaxel nanoparticles in primates
Assay type: in vivo, non human primates
Details: female, monkey, plasma; 50 mg/m2, F, 30 minute IV infusion
Recorded Metric: Cmax

*Q* Entry CC(=O)O[C@@]12CO[C@@H]1C[C@H](O)[C@@]1(C)C(=O)[C@H](O)C3=C(C)[C@@H](OC(=O)[C@H](O)[C@@H](NC(=O)OC(C)(C)C)c4ccccc4)C[C@@](O)([C@@H](OC(=O)c4ccccc4)[C@H]21)C3(C)C : reported Cmax = ?
*A* 835 ng/mL

###

Experiment: Pharmacokinetics of docetaxel nanoparticles in primates
Assay type: in vivo, non human primates
Settings: male, monkey, plasma; 25 mg/m2, M, 30 minute IV infusion
Recorded Metric: Cmax (ng/mL)
Give the value in ng/mL but do not write ng/mL after it.

*Q* What value of Cmax has been reported for the following molecule? CC(=O)O[C@@]12CO[C@@H]1C[C@H](O)[C@@]1(C)C(=O)[C@H](O)C3=C(C)[C@@H](OC(=O)[C@H](O)[C@@H](NC(=O)OC(C)(C)C)c4ccccc4)C[C@@](O)([C@@H](OC(=O)c4ccccc4)[C@H]21)C3(C)C
*A* 364

###

Test: Tumor docetaxel concentration after a single dose in human tumor xenograft model (LNCaP)
Type: in vivo, SCID mice
Conditions: male, SCID, mouse, 2 h after single IV dose of 50 mg/kg docetaxel
Recorded Metric: concentration at 2 h (ng/g)
Lab book: enter the figure in ng/g, no units written.

*Q* # lookup: concentration at 2 h of CC(=O)O[C@@]12CO[C@@H]1C[C@H](O)[C@@]1(C)C(=O)[C@H](O)C3=C(C)[C@@H](OC(=O)[C@H](O)[C@@H](NC(=O)OC(C)(C)C)c4ccccc4)C[C@@](O)([C@@H](OC(=O)c4ccccc4)[C@H]21)C3(C)C [Conventional Docetaxel, docetaxel]
*A* 12900
